Listed next: entries and their corresponding Inhibition.
- Tested on: Candida albicans
- Condition Description: Concentration 32 ug.mL-1; ASSAY_TEST Inhibition of Fungal Growth; detection method Absorption (OD530)
- Description: Antifungal activity against Candida albicans ATCC 90028 (CO-ADD:FG_001); MIC in YNB media using NBS plates, by OD630
Entries with a potency or affinity are not part of this list.
Output spec: scalar in %, unitless text.

> print(dat)
                                   molecule    quantity  reported.value
1  CCOc1ccc(-n2ccn3c(SCC(=O)Nc4cc(F)ccc4F)nnc3c2=O)cc1  Inhibition             2.5
2  Cc1ccc(-c2ccc3nnc(CCC(=O)NCc4ccc(C(C)C)cc4)n3n2)cc1C  Inhibition            5.56
3  O=C(Cn1nc2c(SC3CCCCC3)nccn2c1=O)Nc1ccc(F)c(Cl)c1  Inhibition            5.93
4  COc1cccc(-c2nc(CSc3nc4ccccc4n4c(C)nnc34)c(C)o2)c1OC  Inhibition            0.37
5  O=c1c2sccc2n2c(=O)n(Cc3ccccc3F)nc2n1Cc1cccs1  Inhibition           38.88
6  N#CCn1nc2n(Cc3ccccc3)c(=O)c3ccccc3n2c1=O  Inhibition           -1.85

IN: Quick one: Inhibition for "Cc1ccc(NC(=O)c2ccc3nnc(SCC(=O)Nc4ccc(Br)cc4)n3c2)cc1" ?
OUT: 1.55

IN: Quick one: Inhibition for "COc1ccc(CN(c2ccc(F)cc2)S(=O)(=O)c2cccn3c(C)nnc23)cc1" ?
OUT: 1.16

IN: Quick one: Inhibition for "CCc1ccccc1Sc1nccn2c(=O)n(CC(=O)Nc3ccc(C)cc3C)nc12" ?
OUT: 1.23

IN: Quick one: Inhibition for "CCc1ccccc1NC(=O)Cn1nc2c(Sc3ccccc3CC)nccn2c1=O" ?
OUT: 3.69

IN: Quick one: Inhibition for "Cc1ccc(F)cc1NC(=O)CSc1nc2ccccc2n2c(C(C)C)nnc12" ?
OUT: 0.82

IN: Quick one: Inhibition for "CCCCOc1ccc(-c2cc3c4nnc(SCC(=O)Nc5cc(C)ccc5C)n4ccn3n2)cc1" ?
OUT: 5.83

IN: Quick one: Inhibition for COc1cc(NC(=O)Cn2nc3c(N4CCCC(C)C4)nccn3c2=O)cc(OC)c1 (stereo unspecified) ?
OUT: 3.21
